- Target or test system: androgen receptor (AR) splicing variant AR-v7 (Homo sapiens)
- Construct: The degradation activity of compounds on AR-v7 in 22RV1 cells; host or cells: 22RV1 cells
- Experimental protocol: Degradation activity on androgen receptor splicing variant AR-v7 in 22RV1 cells (ELISA)
- Type: cell-based
- Measurement context: AR-v7 degradation in 22RV1 cells, 48 h, class symbols
Value type: DC50

Using the record for CN(C(=O)c1ccc(C(C)(C)c2ccc(OCc3ccnc(N4CC5(COC5)C4)n3)cc2)cc1)C1CN(c2ccc3c(c2)C(=O)N(C2CCC(=O)NC2=O)C3=O)C1 (centres unmarked) , report its DC50.
101 to 1000 nM

Param item = CC(C)(c1ccc(C#CCNc2ccc3c(c2)C(=O)N(C2CCC(=O)NC2=O)C3=O)cc1)c1ccc(OCc2ccnc(N3CC4(COC4)C3)n2)cc1 (centres unmarked) ; retrieve measured DC50.
11 to 100 nM

###

AUC(0-inf): recorded values
- Experimental protocol: Pharmacokinetics in mice (plasma exposure after oral administration)
- Type: in vivo
- Measurement context: mouse, ICR mice, oral (i.g.) 3 mg/kg, read-out: After oral administration of 3 mg/kg, mouse plasma exposure AUCinf

Some solved cases for reference:
# Compound, AUC(0-inf)
measured = [
    ("CC(C)(c1ccc(OCc2ccnc(N3CC4(CNC4)C3)n2)cc1)c1ccc(O[C@H]2C[C@H](Nc3ccc4c(c3)C(=O)N(C3CCC(=O)NC3=O)C4=O)C2)cc1 (stereo partly drawn)", "100 to 1000 ng·h/mL"),
    ("CN(C)[C@@H]1CCN(c2nccc(COc3ccc(C(C)(C)c4ccc(O[C@H]5C[C@@H](Nc6ccc7c(c6)C(=O)N(C6CCC(=O)NC6=O)C7=O)C5)cc4)cc3)n2)C1 (stereo partly drawn)", "5000 to 30000 ng·h/mL"),
]

Requested field: AUC(0-inf). Item: CC(C)(c1ccc(OCc2ccnc(N3CC4(CCO4)C3)n2)cc1)c1ccc(O[C@H]2C[C@@H](Nc3ccc4c(c3)C(=O)N(C3CCC(=O)NC3=O)C4=O)C2)cc1 (stereo partly drawn)
1000 to 5000 ng·h/mL

###

Below, each entry is listed with its recorded DC50.
- Target or test system: androgen receptor (AR) splicing variant AR-v7 (Homo sapiens, UniProt P10275)
- Construct: The degradation activity of compounds on AR-v7 in 22RV1 cells; host or cells: 22RV1 cells
- Sequence (P10275 1-644 isoform P10275-3): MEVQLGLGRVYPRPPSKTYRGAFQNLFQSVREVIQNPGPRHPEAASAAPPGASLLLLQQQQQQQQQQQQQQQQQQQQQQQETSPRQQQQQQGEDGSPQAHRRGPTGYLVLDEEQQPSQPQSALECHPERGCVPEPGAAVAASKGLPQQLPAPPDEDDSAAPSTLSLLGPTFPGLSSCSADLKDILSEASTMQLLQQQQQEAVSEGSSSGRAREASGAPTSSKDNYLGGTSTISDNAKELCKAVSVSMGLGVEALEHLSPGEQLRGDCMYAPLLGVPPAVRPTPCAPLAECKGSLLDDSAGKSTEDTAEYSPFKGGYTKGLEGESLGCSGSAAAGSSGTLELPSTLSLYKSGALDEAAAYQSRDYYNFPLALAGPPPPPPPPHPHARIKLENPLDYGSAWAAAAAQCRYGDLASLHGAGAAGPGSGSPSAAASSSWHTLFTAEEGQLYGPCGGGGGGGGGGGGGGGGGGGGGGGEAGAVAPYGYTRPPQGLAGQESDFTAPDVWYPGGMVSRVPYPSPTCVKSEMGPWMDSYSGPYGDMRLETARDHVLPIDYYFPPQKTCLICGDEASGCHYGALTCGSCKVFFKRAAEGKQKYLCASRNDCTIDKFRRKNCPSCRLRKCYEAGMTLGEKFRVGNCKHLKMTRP
- Experimental protocol: Degradation activity on androgen receptor splicing variant AR-v7 in 22RV1 cells (ELISA)
- Format: cell-based
- Measurement context: AR-v7 degradation in 22RV1 cells, 48 h, class symbols

Examples from the recorded data:
# Compound, DC50
rows = [
    ("CC(C)(c1ccc(Oc2ncnc(N3CC4(COC4)C3)c2F)cc1)c1ccc(O[C@H]2C[C@@H](Nc3ccc4c(c3)C(=O)N(C3CCC(=O)NC3=O)C4=O)C2)cc1 (some centres unmarked) [Example 574]", "< 10 nM"),
    ("CC(C)(c1ccc(Oc2ncc(F)c(N3CC4(COC4)C3)n2)cc1)c1ccc(O[C@H]2C[C@@H](Nc3ccc4c(c3)C(=O)N(C3CCC(=O)NC3=O)C4=O)C2)cc1 (some centres unmarked) [Example 157]", "11 to 100 nM"),
    ("CC(C)(c1ccc(Oc2ccc(N3CC(N4CC(F)(F)C4)C3)nn2)cc1)c1ccc(O[C@H]2C[C@H](Nc3ccc4c(c3)C(=O)N(C3CCC(=O)NC3=O)C4=O)C2)cc1 (some centres unmarked) [Example 424]", "11 to 100 nM"),
    ("CC(C)(c1ccc(OCc2cccc(-n3cccn3)n2)cc1)c1ccc(O[C@H]2C[C@H](Nc3ccc4c(c3)C(=O)N(C3CCC(=O)NC3=O)C4=O)C2)cc1 (some centres unmarked) [Example 253]", "11 to 100 nM"),
    ("Cc1nc(-c2ncc(Oc3ccc(C4(c5ccc(O[C@H]6C[C@H](Nc7ccc8c(c7)C(=O)N(C7CCC(=O)NC7=O)C8=O)C6)cc5)CCCC4)cc3)cn2)no1 (some centres unmarked) [Example 293]", "< 10 nM"),
    ("Cc1nnc(-c2ncc(Oc3ccc(C4(c5ccc(O[C@H]6C[C@H](Nc7ccc8c(c7)C(=O)N(C7CCC(=O)NC7=O)C8=O)C6)cc5)CCCC4)cc3)cn2)o1 (some centres unmarked) [Example 483]", "< 10 nM"),
    ("CC(C)(c1ccc(Oc2nc(N3CC4(COC4)C3)ncc2F)cc1)c1ccc(O[C@H]2C[C@@H](Nc3ccc4c(c3)C(=O)N(C3CCC(=O)NC3=O)C4=O)C2)cc1 (some centres unmarked) [Example 158]", "11 to 100 nM"),
    ("CN1CCN(C(=O)c2noc(COc3ccc(C(C)(C)c4ccc(OCCCNc5ccc6c(c5)C(=O)N(C5CCC(=O)NC5=O)C6=O)cc4)cc3)n2)CC1 (centres unmarked) [Example 141]", "11 to 100 nM"),
]

Field: DC50 (androgen receptor (AR) splicing variant AR-v7 (Homo sapiens, UniProt P10275)). Entry: CC(C)(c1ccc(OCc2ccnc(N3CC4(CNC4)C3)n2)cc1)c1ccc(O[C@H]2C[C@H](Nc3ccc4c(c3)C(=O)N(C3CCC(=O)NC3=O)C4=O)C2)cc1 (some centres unmarked) [Example 82]
11 to 100 nM

Record lookup: for androgen receptor (AR) splicing variant AR-v7 (Homo sapiens, UniProt P10275), what DC50 belongs to CC(C)(c1ccc(OCCCNc2ccc3c(c2)C(=O)N(C2CCC(=O)NC2=O)C3=O)cc1)c1ccc(OCc2ccnc(NC3CC3)n2)cc1 (centres unmarked) [Example 444] ?
11 to 100 nM

What measured DC50 is associated with CC(C)(c1ccc(OCc2ccnc(N3CC4(COC4)C3)n2)cc1)c1ccc(OC[C@@H]2CCCN2c2ccc3c(c2)C(=O)N(C2CCC(=O)NC2=O)C3=O)cc1 (some centres unmarked) [Example 313] on androgen receptor (AR) splicing variant AR-v7 (Homo sapiens, UniProt P10275)?
101 to 1000 nM

###

AUC(0-inf) listing for selected compounds.
- Experimental protocol: Pharmacokinetics in mice (plasma exposure after oral administration)
- Format: in vivo
- Measurement context: mouse, ICR mice, oral (i.g.) 3 mg/kg, read-out: After oral administration of 3 mg/kg, mouse plasma exposure AUCinf

Some solved cases for reference:
# Compound, AUC(0-inf)
data = [
    ("CC(C)(c1ccc(Oc2ccc(-n3nccn3)nc2)cc1)c1ccc(O[C@H]2C[C@H](Nc3ccc4c(c3)C(=O)N(C3CCC(=O)NC3=O)C4=O)C2)cc1 (stereo partly drawn)", "5000 to 30000 ng·h/mL"),
    ("Cc1nnc(-c2ccc(Oc3ccc(C(C)(C)c4ccc(O[C@H]5C[C@H](Nc6ccc7c(c6)C(=O)N(C6CCC(=O)NC6=O)C7=O)C5)cc4)cc3)cc2)o1 (stereo partly drawn)", "5000 to 30000 ng·h/mL"),
]

# evaluate next
Could you share which AUC(0-inf) value was measured for Cc1nc(-c2ncc(Oc3ccc(C4(c5ccc(O[C@H]6C[C@H](Nc7ccc8c(c7)C(=O)N(C7CCC(=O)NC7=O)C8=O)C6)cc5)CC4)cc3)cn2)no1 (stereo partly drawn) ?
5000 to 30000 ng·h/mL

###

Listed molecules paired with reported AUC(0-inf)
- Experimental protocol: Pharmacokinetics in mice (plasma exposure after oral administration)
- Assay type: in vivo
- Measurement context: mouse, ICR mice, oral (i.g.) 3 mg/kg, read-out: After oral administration of 3 mg/kg, mouse plasma exposure AUCinf

Reference set (3 entries):
# Molecule, AUC(0-inf)
data = [
    ("Cc1nc(-c2cnc(Oc3ccc(C(C)(C)c4ccc(O[C@H]5C[C@@H](Nc6ccc7c(c6)C(=O)N(C6CCC(=O)NC6=O)C7=O)C5)cc4)cc3)cn2)no1 (some centres unmarked)", "5000 to 30000 ng·h/mL"),
    ("C=CC(c1ccc(Oc2cnc(-n3nccn3)nc2)cc1)c1ccc(O[C@H]2C[C@H](Nc3ccc4c(c3)C(=O)N(C3CCC(=O)NC3=O)C4=O)C2)cc1 (some centres unmarked)", "5000 to 30000 ng·h/mL"),
    ("CC(C)(c1ccc(OCc2ccnc(NC3CCN(CCCCO)CC3)n2)cc1)c1ccc(O[C@H]2C[C@H](Nc3ccc4c(c3)C(=O)N(C3CCC(=O)NC3=O)C4=O)C2)cc1 (some centres unmarked)", "100 to 1000 ng·h/mL"),
]

Looking for the measured AUC(0-inf) of CC(=O)c1nccc(COc2ccc(C(C)(C)c3ccc(OC4CN(c5ccc6c(c5)C(=O)N(C5CCC(=O)NC5=O)C6=O)C4)cc3)cc2)n1 (centres unmarked) , can you help?
5000 to 30000 ng·h/mL

Quick one: AUC(0-inf) for CC(C)(c1ccc(Oc2cnc(N3CC4(COC4)C3)nc2)cc1)c1ccc(O[C@H]2C[C@H](Nc3ccc4c(c3)C(=O)N(C3CCC(=O)NC3=O)C4=O)C2)cc1 (some centres unmarked) ?
1000 to 5000 ng·h/mL
